# Lookup of reported inhibition of SARS-CoV-2 cytopathic effect keyed by entry
- Test system: Vero E6 infected with SARS-CoV-2
- TEST NAME: inhibition of SARS-CoV-2 cytopathic effect; higher = more antiviral protection, active = above 15
- ASSAY SETUP: 8.33 nM; 48 h
VALUE KIND: inhibition of SARS-CoV-2 cytopathic effect (%)

INSERT INTO measurements (smiles_repr, value_units, result) VALUES
  ('O=C(O)CNC(=O)C1C(=O)N(C2CCCCC2)C(=O)N(C2CCCCC2)C1=O', '%', 1.23),
  ('CCc1nn(CCO)c(CC)c1Oc1cc(C#N)cc(C#N)c1', '%', 2.52),
  ('COc1ccc(N(C)c2nc(C)nc3ccccc23)cc1', '%', 2.34),
  ('CCCCCCCCCCCCCCCC[N+](C)(C)Cc1ccccc1', '%', 0.11),
  ('O=C(O)[C@]1(Cc2cccc(Nc3nccs3)n2)CC[C@@H](Oc2cccc(Cl)c2F)CC1', '%', -0.24),
  ('COc1cc2c(cc1Cc1cccc(Cl)c1F)c(=O)c(C(=O)O)cn2[C@H](CO)C(C)C', '%', 1.56),
  ('CN1CCC[C@@H]1CCO[C@](C)(c1ccccc1)c1ccc(Cl)cc1', '%', 4.37),
  ('O=C1NCCN1CCN1CCC(c2cn(-c3ccc(F)cc3)c3ccc(Cl)cc23)CC1', '%', -4.63),
  ('Nc1nc(=O)c2sc(=O)n([C@@H]3O[C@H](CO)[C@@H](O)[C@H]3O)c2[nH]1', '%', 0.81);
